Values compiled from the RNAGym collection of RNA variant scans (doi:10.1126/science.aae0568).

B1: tRNA (parent)
chain: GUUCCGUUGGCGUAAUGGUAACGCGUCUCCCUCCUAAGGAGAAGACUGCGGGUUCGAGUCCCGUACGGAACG

# Variants of: B1
# procedureText: yeast fitness relative to wild type (ratio to wild type); higher = fitter; tRNA-Arg(CCU), competitive growth, 37 C, YPD
This sample holds only a part of the variants without activity.
measurementType: yeast fitness

Annotate the variant U3A C4U C31A C66G G68C with its measured yeast fitness.
≤ 0.5

Annotate the variant G17A C60U with its measured yeast fitness.
0.594

Annotate the variant C24G C31G with its measured yeast fitness.
0.773

Annotate the variant U8A G23A C30G U59A A70C with its measured yeast fitness.
≤ 0.5

Annotate the variant C5G A21G U32C C49G A65G with its measured yeast fitness.
0.553

Annotate the variant G25C G41C C46U with its measured yeast fitness.
0.579

Annotate the variant G23A A40G G41A A45U G51C with its measured yeast fitness.
≤ 0.5

Annotate the variant C11U U13G U19A C22G G25A C61A with its measured yeast fitness.
≤ 0.5

Annotate the variant C30A G58C G68A with its measured yeast fitness.
≤ 0.5

Annotate the variant C4A A15G C22U A36U C60A with its measured yeast fitness.
≤ 0.5

Annotate the variant A14G C24G C66U with its measured yeast fitness.
≤ 0.5
